assay: Anticancer human tumor 997537-175-T-J1-PDC patient-derived colon adenocarcinoma cell line growth inhibition [POLQ]; conditions: 997537-175-T-J1-PDC complex spheroid viability, combination with POLQ inhibitors; second compound 0.1 µM; first compound 0.1 µM; hits give low values
readout label: viability, T/C (%)
Write the number in % without appending the unit.

The following compounds have reported results that may help.
compound: COc1ccc([C@@H](O)c2cc(-c3ncnc4cc(N5CCOCC5)ccc34)c(F)cc2Cl)nn1 + COC1C(OC(N)=O)C(O)C(Oc2ccc3c(O)c(NC(=O)c4ccc(O)c(CC=C(C)C)c4)c(=O)oc3c2C)OC1(C)C
viability, T/C (%): 103

compound: CCc1cc2c(N3CCc4c(cc(Cn5ccnc5)cc4-c4cn(C)nc4C(F)(F)F)C3=O)cc(C)nc2c(OC)n1 + COC1C(OC(N)=O)C(O)C(Oc2ccc3c(O)c(NC(=O)c4ccc(O)c(CC=C(C)C)c4)c(=O)oc3c2C)OC1(C)C
viability, T/C (%): 93.3

compound: COc1cc2cc(C(=O)CCC(=O)O)sc2cc1OC + Nc1ccc(C#CCN(C(=O)Cc2ncc(C(F)(F)F)cc2C(F)(F)F)c2ccc(F)cc2)nn1
viability, T/C (%): 102

Next item in the queue.
Recorded viability, T/C of CCc1c2c(nc3ccc(O)cc13)-c1cc3c(c(=O)n1C2)COC(=O)[C@]3(O)CC + Cc1cccc(N(C)C(=O)C2C(O)CCN2c2nc(C)cc(C(F)(F)F)c2C#N)c1 , please.
11.7

* * *

Listed compounds paired with reported viability, T/C
assay: Anticancer human tumor 997537-175-T-J1-PDC cell line growth inhibition [POLQ]; conditions: 997537-175-T-J1-PDC complex spheroid viability, combination with POLQ inhibitors; second compound 10 µM; first compound 0.01 µM; hits give low values;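 further: luminescence signal used as a surrogate for viable cells; spheroids exposed to drugs for seven days before readout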
Field: numeric (%). Do not append units.

compound: CC[C@@]1(O)C(=O)OCc2c1cc1n(c2=O)Cc2cc3c(CN(C)C)c(O)ccc3nc2-1 + COC1C(OC(N)=O)C(O)C(Oc2ccc3c(O)c(NC(=O)c4ccc(O)c(CC=C(C)C)c4)c(=O)oc3c2C)OC1(C)C
observed value: 98.5

compound: C=CCn1c(=O)c2cnc(Nc3ccc(N4CCN(C)CC4)cc3)nc2n1-c1cccc(C(C)(C)O)n1 + COC1C(OC(N)=O)C(O)C(Oc2ccc3c(O)c(NC(=O)c4ccc(O)c(CC=C(C)C)c4)c(=O)oc3c2C)OC1(C)C
observed value: 82.5

compound: Cn1ncnc1[C@H]1c2n[nH]c(=O)c3cc(F)cc(c23)N[C@@H]1c1ccc(F)cc1 + Cc1cccc(N(C)C(=O)C2C(O)CCN2c2nc(C)cc(C(F)(F)F)c2C#N)c1
observed value: 84.4

Please give the measured viability, T/C for this compound: CC[C@@]1(O)C(=O)OCc2c1cc1n(c2=O)Cc2cc3c(CN(C)C)c(O)ccc3nc2-1 + Cc1cccc(N(C)C(=O)C2C(O)CCN2c2nc(C)cc(C(F)(F)F)c2C#N)c1
97.3

Could you tell me which viability, T/C is on file for COc1cccc(OCCCN)c1-c1cc(Nc2cnc(C#N)cn2)n[nH]1 + Nc1ccc(C#CCN(C(=O)Cc2ncc(C(F)(F)F)cc2C(F)(F)F)c2ccc(F)cc2)nn1 ?
85.1

Bench note: what viability, T/C did CCc1c2c(nc3ccc(O)cc13)-c1cc3c(c(=O)n1C2)COC(=O)[C@]3(O)CC + COC1C(OC(N)=O)C(O)C(Oc2ccc3c(O)c(NC(=O)c4ccc(O)c(CC=C(C)C)c4)c(=O)oc3c2C)OC1(C)C show?
57.9

Which viability, T/C is listed for C=CCn1c(=O)c2cnc(Nc3ccc(N4CCN(C)CC4)cc3)nc2n1-c1cccc(C(C)(C)O)n1 + Nc1ccc(C#CCN(C(=O)Cc2ncc(C(F)(F)F)cc2C(F)(F)F)c2ccc(F)cc2)nn1 ?
85.5

* * *

Assay: Anticancer human tumor 997537-175-T-J1-PDC cell line growth inhibition [POLQ];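 further: luminescence signal used as a surrogate for viable cells; spheroids exposed to drugs for seven days before readout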
Settings: 997537-175-T-J1-PDC complex spheroid viability, combination with POLQ inhibitors; second compound 0.1 µM; first compound 0.00316 µM; hits give low values
Experimental: Multicellular complex tumor spheroid response to Polymerase (POL) inhibitors (novobiocin, ART-558, RP6685) in combination with a variety of drugs and investigational agents in selected tumor cell lines The POL inhibitors (novobiocin, ART-558, and RP6685) were evaluated both individually and in combination with standard of care and investigational anticancer small molecules within a complex spheroid model of solid tumors. . […]
readout label: viability, T/C (%)
A number alone suffices; assume %.

Some solved entries appear below for comparison.
molecule: CCc1c2c(nc3ccc(O)cc13)-c1cc3c(c(=O)n1C2)COC(=O)[C@]3(O)CC + Nc1ccc(C#CCN(C(=O)Cc2ncc(C(F)(F)F)cc2C(F)(F)F)c2ccc(F)cc2)nn1
viability, T/C [%]: 89.9
//
molecule: CC[C@@]1(O)C(=O)OCc2c1cc1n(c2=O)Cc2cc3c(CN(C)C)c(O)ccc3nc2-1 + Nc1ccc(C#CCN(C(=O)Cc2ncc(C(F)(F)F)cc2C(F)(F)F)c2ccc(F)cc2)nn1
viability, T/C [%]: 101
//
molecule: CC[C@@]1(O)C(=O)OCc2c1cc1n(c2=O)Cc2cc3c(CN(C)C)c(O)ccc3nc2-1 + COC1C(OC(N)=O)C(O)C(Oc2ccc3c(O)c(NC(=O)c4ccc(O)c(CC=C(C)C)c4)c(=O)oc3c2C)OC1(C)C
viability, T/C [%]: 111
//
molecule: CCc1c2c(nc3ccc(O)cc13)-c1cc3c(c(=O)n1C2)COC(=O)[C@]3(O)CC + Cc1cccc(N(C)C(=O)C2C(O)CCN2c2nc(C)cc(C(F)(F)F)c2C#N)c1
viability, T/C [%]: 86.2

Now take the following molecule into account.
Please give the measured viability, T/C for this molecule: C=CCn1c(=O)c2cnc(Nc3ccc(N4CCN(C)CC4)cc3)nc2n1-c1cccc(C(C)(C)O)n1 + Nc1ccc(C#CCN(C(=O)Cc2ncc(C(F)(F)F)cc2C(F)(F)F)c2ccc(F)cc2)nn1
95.9

* * *

Recorded viability, T/C values for a group of compounds are listed next.
test: Anticancer human tumor 997537-175-T-J1-PDC cell line growth inhibition [POLQ]; details: 997537-175-T-J1-PDC complex spheroid viability, combination with POLQ inhibitors; second compound 0.316 µM; first compound 0.01 µM; hits give low values;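 further: luminescence signal used as a surrogate for viable cells; spheroids exposed to drugs for seven days before readout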
State just the number; it will be interpreted in %.

// solved cases for viability, T/C follow
compound: CC[C@@]1(O)C(=O)OCc2c1cc1n(c2=O)Cc2cc3c(CN(C)C)c(O)ccc3nc2-1 + Nc1ccc(C#CCN(C(=O)Cc2ncc(C(F)(F)F)cc2C(F)(F)F)c2ccc(F)cc2)nn1
viability, T/C, %: 101

compound: CC[C@@]1(O)C(=O)OCc2c1cc1n(c2=O)Cc2cc3c(CN(C)C)c(O)ccc3nc2-1 + COC1C(OC(N)=O)C(O)C(Oc2ccc3c(O)c(NC(=O)c4ccc(O)c(CC=C(C)C)c4)c(=O)oc3c2C)OC1(C)C
viability, T/C, %: 102

compound: C=CCn1c(=O)c2cnc(Nc3ccc(N4CCN(C)CC4)cc3)nc2n1-c1cccc(C(C)(C)O)n1 + Cc1cccc(N(C)C(=O)C2C(O)CCN2c2nc(C)cc(C(F)(F)F)c2C#N)c1
viability, T/C, %: 113

compound: CCc1c2c(nc3ccc(O)cc13)-c1cc3c(c(=O)n1C2)COC(=O)[C@]3(O)CC + Cc1cccc(N(C)C(=O)C2C(O)CCN2c2nc(C)cc(C(F)(F)F)c2C#N)c1
viability, T/C, %: 77.2

compound: Cn1ncnc1[C@H]1c2n[nH]c(=O)c3cc(F)cc(c23)N[C@@H]1c1ccc(F)cc1 + Cc1cccc(N(C)C(=O)C2C(O)CCN2c2nc(C)cc(C(F)(F)F)c2C#N)c1
viability, T/C, %: 94.6

compound: COc1cccc(OCCCN)c1-c1cc(Nc2cnc(C#N)cn2)n[nH]1 + COC1C(OC(N)=O)C(O)C(Oc2ccc3c(O)c(NC(=O)c4ccc(O)c(CC=C(C)C)c4)c(=O)oc3c2C)OC1(C)C
viability, T/C, %: 95

compound: C=CCn1c(=O)c2cnc(Nc3ccc(N4CCN(C)CC4)cc3)nc2n1-c1cccc(C(C)(C)O)n1 + Nc1ccc(C#CCN(C(=O)Cc2ncc(C(F)(F)F)cc2C(F)(F)F)c2ccc(F)cc2)nn1
viability, T/C, %: 97.3

compound: Cn1ncnc1[C@H]1c2n[nH]c(=O)c3cc(F)cc(c23)N[C@@H]1c1ccc(F)cc1 + Nc1ccc(C#CCN(C(=O)Cc2ncc(C(F)(F)F)cc2C(F)(F)F)c2ccc(F)cc2)nn1
viability, T/C, %: 106

// returns reported viability, T/C for input C=CCn1c(=O)c2cnc(Nc3ccc(N4CCN(C)CC4)cc3)nc2n1-c1cccc(C(C)(C)O)n1 + COC1C(OC(N)=O)C(O)C(Oc2ccc3c(O)c(NC(=O)c4ccc(O)c(CC=C(C)C)c4)c(=O)oc3c2C)OC1(C)C
101

Entry under review: Cn1ncnc1[C@H]1c2n[nH]c(=O)c3cc(F)cc(c23)N[C@@H]1c1ccc(F)cc1 + COC1C(OC(N)=O)C(O)C(Oc2ccc3c(O)c(NC(=O)c4ccc(O)c(CC=C(C)C)c4)c(=O)oc3c2C)OC1(C)C . Reported viability, T/C?
91
